Test system: Enterococcus faecalis
testProtocol: microbe, parasite or virus in culture
Format: functional
settings: ATCC 51299
Description: Antibacterial activity against vancomycin-susceptible Enterococcus faecalis ATCC 51299 by XTT assay
quantityMeasured: MIC (µg/mL)
# value in µg/mL; strip the unit string

Enquiry: Name the reported MIC value associated with the compound CCCCCCC(C)/C=C(\C)C(=O)O[C@@]1(C)C(=O)C2=COC(C3=C(C)CC(O)CC3=O)=CC2=C(Cl)C1=O (stereo not given in full)
Return: 12.5

Enquiry: Name the reported MIC value associated with the compound CN[C@H](CC(C)C)C(=O)N[C@H]1C(=O)N[C@@H](CC(N)=O)C(=O)N[C@H]2C(=O)N[C@H]3C(=O)N[C@H](C(=O)N[C@H](C(=O)O)c4cc(O)cc(O)c4-c4cc3ccc4O)[C@H](O)c3ccc(c(Cl)c3)Oc3cc2cc(c3O[C@@H]2O[C@H](CO)[C@@H](O)[C@H](O)[C@H]2O[C@H]2C[C@](C)(N)[C@H](O)[C@H](C)O2)Oc2ccc(cc2Cl)[C@H]1O.Cl [VANCOMYCIN HYDROCHLORIDE]
Return: 6.25

Enquiry: Name the reported MIC value associated with the compound CCCCCCC(C)/C=C(\C)C(=O)O[C@@]1(C)C(=O)C=C2C=C(c3c(C)cccc3O)OC=C2C1=O (stereo not given in full)
Return: 3.13

====

Kindly state MIC for each of the entries shown.
System: Staphylococcus aureus
testProtocol: Antibacterial activity against methicillin-susceptible Staphylococcus aureus ATCC 29213 by XTT assay
# value in µg/mL; strip the unit string

Enquiry: Value wanted: MIC (Staphylococcus aureus) of entry CCCCCCC(C)/C=C(\C)C(=O)O[C@@]1(C)C(=O)C2=COC(c3c(C)cccc3O)=CC2=C(Cl)C1=O (stereo partly drawn)
Return: 3.13

Enquiry: Value wanted: MIC (Staphylococcus aureus) of entry CN[C@H](CC(C)C)C(=O)N[C@H]1C(=O)N[C@@H](CC(N)=O)C(=O)N[C@H]2C(=O)N[C@H]3C(=O)N[C@H](C(=O)N[C@H](C(=O)O)c4cc(O)cc(O)c4-c4cc3ccc4O)[C@H](O)c3ccc(c(Cl)c3)Oc3cc2cc(c3O[C@@H]2O[C@H](CO)[C@@H](O)[C@H](O)[C@H]2O[C@H]2C[C@](C)(N)[C@H](O)[C@H](C)O2)Oc2ccc(cc2Cl)[C@H]1O.Cl [VANCOMYCIN HYDROCHLORIDE]
Return: 0.39

Enquiry: Value wanted: MIC (Staphylococcus aureus) of entry "Cc1onc(-c2ccccc2)c1C(=O)N[C@@H]1C(=O)N2[C@@H]1SC(C)(C)[C@@H]2C(=O)[O-].[Na+]"
Return: 3.13

Enquiry: Value wanted: MIC (Staphylococcus aureus) of entry CCCCCCC(C)/C=C(\C)C(=O)O[C@@]1(C)C(=O)C=C2C=C(c3c(C)cccc3O)OC=C2C1=O (stereo partly drawn)
Return: 3.13

Enquiry: Value wanted: MIC (Staphylococcus aureus) of entry CCCCCCC(C)/C=C(\C)C(=O)O[C@@]1(C)C(=O)C2=COC(C3=C(C)CC(O)CC3=O)=CC2=C(Cl)C1=O (stereo partly drawn)
Return: 6.25

====

System: Staphylococcus aureus
testProtocol: Antibacterial activity against methicillin-susceptible Staphylococcus aureus ATCC 29213 by XTT assay
Kindly state MIC for each of the entries shown.

Enquiry: Name the reported MIC value associated with the compound "Cc1cccc(O)c1C1=CC2=C(Cl)C(=O)[C@@](C)(O)C(=O)C2=CO1"
Return: > 50 µg/mL

Enquiry: Name the reported MIC value associated with the compound CCCCCCC(C)/C=C(\C)C(=O)O[C@@]1(C)C(=O)C=C2C=C(C3=C(C)C[C@@H](O)CC3=O)OC=C2C1=O (stereo partly drawn)
Return: > 50 µg/mL

Enquiry: Name the reported MIC value associated with the compound "Cc1cccc(O)c1C1=CC2=CC(=O)[C@](C)(O)C(=O)C2=CO1"
Return: > 50 µg/mL
